Target: human M2 receptor (Homo sapiens, UniProt P08172)
Construct: expressed in transfected cells; host or cells: CHO-DUKX (CHO-DUKX-M2-GIRK)
Sequence (P08172 whole entry): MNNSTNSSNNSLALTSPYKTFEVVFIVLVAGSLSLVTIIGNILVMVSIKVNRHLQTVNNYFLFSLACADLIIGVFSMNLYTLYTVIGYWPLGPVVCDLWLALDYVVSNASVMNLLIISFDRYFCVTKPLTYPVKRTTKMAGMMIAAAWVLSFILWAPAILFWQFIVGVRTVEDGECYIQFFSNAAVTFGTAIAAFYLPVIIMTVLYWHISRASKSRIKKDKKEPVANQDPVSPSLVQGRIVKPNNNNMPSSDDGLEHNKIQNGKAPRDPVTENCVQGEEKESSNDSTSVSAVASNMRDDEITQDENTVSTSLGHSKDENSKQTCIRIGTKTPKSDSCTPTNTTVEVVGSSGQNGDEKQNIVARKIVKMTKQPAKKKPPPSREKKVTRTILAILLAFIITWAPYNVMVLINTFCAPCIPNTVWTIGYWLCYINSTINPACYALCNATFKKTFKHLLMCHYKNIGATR
Test: Functional M2-GIRK1/4 activation test: allosteric potency (EC50) and efficiency at EC20 acetylcholine
Format: cell-based
Conditions: boosting of the acetylcholine effect at EC20 acetylcholine concentration; CHO-DUKX-M2-GIRK cells
assay_readout: Emax (%)

molecule: CC(C)[C@H](C)NC(=O)c1cn(-c2c(F)cc(F)cc2F)c2nc(N3C[C@@H](O)[C@H](O)C3)c(F)cc2c1=O
tested_system: human M2 receptor (Homo sapiens, UniProt P08172)
units: %
Emax: 99

molecule: CC(C)(C)NC(=O)c1cn(-c2c(F)cc(F)cc2F)c2nc(N3C[C@@H](O)[C@@H](O)C3)c(F)cc2c1=O
tested_system: human M2 receptor (Homo sapiens, UniProt P08172)
units: %
Emax: 100

molecule: O=C(NC(C1CC1)C(F)(F)C(F)(F)F)c1cn(-c2c(F)cc(F)cc2F)c2nc(N3CC(CO)(CO)C3)c(F)cc2c1=O (single isomer, unassigned)
tested_system: human M2 receptor (Homo sapiens, UniProt P08172)
units: %
Emax: 100

molecule: CCC(NC(=O)c1cn(-c2c(F)cc(F)cc2F)c2nc(N3C[C@@H](O)[C@@H](O)C3)c(F)cc2c1=O)C(C)C (mixture of isomers)
tested_system: human M2 receptor (Homo sapiens, UniProt P08172)
units: %
Emax: 97

molecule: CN1CCN(c2nc3c(cc2F)c(=O)c(C(=O)N[C@@H](C2CC2)C(F)(F)F)cn3-c2c(F)cc(F)cc2F)C(CO)C1 (stereo partly shown)
tested_system: human M2 receptor (Homo sapiens, UniProt P08172)
units: %
Emax: 91

molecule: O=C(N[C@@H](C1CC1)C(F)(F)F)c1cn(-c2c(F)cc(F)cc2F)c2nc(N3CCOCC3)c(F)cc2c1=O
tested_system: human M2 receptor (Homo sapiens, UniProt P08172)
units: %
Emax: 94

molecule: CC(NC(=O)c1cn(-c2c(F)cc(F)cc2F)c2nc(N3CC[C@H](O)C3)c(F)cc2c1=O)C(F)(F)C(F)(F)F (mixture of isomers) [Example 112]
tested_system: human M2 receptor (Homo sapiens, UniProt P08172)
units: %
Emax: 100

molecule: O=C(NC(C(F)(F)F)C(F)(F)F)c1cn(-c2ncc(F)cc2F)c2nc(N3CCC[C@@H]3CO)c(F)cc2c1=O
tested_system: human M2 receptor (Homo sapiens, UniProt P08172)
units: %
Emax: 100

molecule: O=C(NC(C(F)(F)F)C(F)(F)F)c1cn(-c2c(F)cc(F)cc2F)c2nc(N3CCC(O)(CO)CC3)c(F)cc2c1=O
tested_system: human M2 receptor (Homo sapiens, UniProt P08172)
units: %
Emax: 100

molecule: CCN(CC(C)O)c1nc2c(cc1F)c(=O)c(C(=O)N[C@@H](C1CC1)C(F)(F)F)cn2-c1c(F)cc(F)cc1F (single isomer, unassigned) [Example 66]
tested_system: human M2 receptor (Homo sapiens, UniProt P08172)
units: %
Emax: 92

molecule: CC(COC(F)(F)F)NC(=O)c1cn(-c2ccc(F)cc2F)c2ncc(Cl)cc2c1=O (racemic)
tested_system: human M2 receptor (Homo sapiens, UniProt P08172)
units: %
Emax: 75

molecule: CC(NC(=O)c1cn(-c2c(F)cc(F)cc2F)c2nc(N3CC[C@H](O)C3)c(F)cc2c1=O)C(F)(F)C(F)(F)F (single isomer, unassigned) [Example 113]
tested_system: human M2 receptor (Homo sapiens, UniProt P08172)
units: %
Emax: 100

molecule: CC(C)C(NC(=O)c1cn(-c2c(F)cc(F)cc2F)c2nc(N3CC[C@H](O)C3)c(F)cc2c1=O)C(C)C
tested_system: human M2 receptor (Homo sapiens, UniProt P08172)
units: %
Emax: 100

molecule: CC1(O)CN(c2nc3c(cc2F)c(=O)c(C(=O)NC(C2CC2)C2CC2)cn3-c2ncc(F)cc2F)C1
tested_system: human M2 receptor (Homo sapiens, UniProt P08172)
units: %
Emax: 100

molecule: C[C@H](NC(=O)c1cn(-c2c(F)cc(F)cc2Cl)c2nc(N3C[C@@H](O)[C@H](O)C3)c(F)cc2c1=O)C1CC1
tested_system: human M2 receptor (Homo sapiens, UniProt P08172)
units: %
Emax: 100

molecule: O=C(NC(C(F)(F)F)C(F)(F)F)c1cn(-c2ncc(F)cc2F)c2nc(N3C[C@@H](O)[C@H](O)C3)c(F)cc2c1=O
tested_system: human M2 receptor (Homo sapiens, UniProt P08172)
units: %
Emax: 100

molecule: CC(NC(=O)c1cn(-c2c(F)cc(F)cc2F)c2nc(N3C[C@@H](O)[C@H](O)C3)c(Br)cc2c1=O)C(F)(F)C(F)(F)F (stereo partly shown)
tested_system: human M2 receptor (Homo sapiens, UniProt P08172)
units: %
Emax: 100

molecule: CC(NC(=O)c1cn(-c2c(F)cc(F)cc2F)c2nc(N3CCC4(C3)NC(=O)N(C)C4=O)c(F)cc2c1=O)C(F)(F)C(F)(F)F (stereo not shown)
tested_system: human M2 receptor (Homo sapiens, UniProt P08172)
units: %
Emax: 90

molecule: C[C@H](NC(=O)c1cn(-c2c(F)cc(F)cc2F)c2nc(N3C[C@@H](O)[C@H](O)C3)c(F)cc2c1=O)C(F)(F)F
tested_system: human M2 receptor (Homo sapiens, UniProt P08172)
units: %
Emax: 99

molecule: O=C(N[C@@H](C1CC1)C(F)(F)F)c1cn(-c2c(F)cc(F)cc2F)c2nc(N3CCCC[C@H]3CO)c(F)cc2c1=O
tested_system: human M2 receptor (Homo sapiens, UniProt P08172)
units: %
Emax: 90

molecule: CC(NC(=O)c1cn(-c2c(F)cc(F)cc2F)c2nc(N3CCC(CO)(CO)CC3)c(F)cc2c1=O)C(F)(F)C(F)(F)F (single isomer, unassigned)
tested_system: human M2 receptor (Homo sapiens, UniProt P08172)
units: %
Emax: 90

molecule: O=C(N[C@@H](C1CC1)C(F)(F)F)c1cn(-c2c(F)cc(F)cc2F)c2nc(N3CCNCC3)c(F)cc2c1=O
tested_system: human M2 receptor (Homo sapiens, UniProt P08172)
units: %
Emax: 87

molecule: O=C(NCc1c(Cl)cccc1Cl)c1cn(-c2c(F)cc(F)cc2F)c2nc(N3C[C@@H](O)[C@H](O)C3)c(F)cc2c1=O
tested_system: human M2 receptor (Homo sapiens, UniProt P08172)
units: %
Emax: 99

molecule: CC(C)(NC(=O)c1cn(-c2c(F)cc(F)cc2F)c2nc(N3CC4(COC4)C3)c(F)cc2c1=O)C(F)(F)C(F)(F)F (racemic)
tested_system: human M2 receptor (Homo sapiens, UniProt P08172)
units: %
Emax: 93

molecule: CCC(NC(=O)c1cn(-c2c(F)cc(F)cc2F)c2nc(N3C[C@@H](O)[C@H](O)C3)c(F)cc2c1=O)C(C)C (single isomer, unassigned) [Example 29]
tested_system: human M2 receptor (Homo sapiens, UniProt P08172)
units: %
Emax: 100
